# test-description: Acute toxicity (LD50), single intraperitoneal injection
# condition-parameters: mouse, in vivo, ip; single intraperitoneal injection into mice
parameter-measured: LD50

Lookup: I have this molecule here, CC1OC(OC2CCC(OC3(C)CC(=O)C4(O)C5=C(C=CC4(O)C3)C(=O)c3c(ccc(C4CC6OC7CC(=O)C(C)OC7OC6C(C)O4)c3O)C5=O)OC2C)C=CC1=O (stereo not shown) [MH190 Y2, Saquayamycin B] , and I need its recorded LD50.
Found: 6.25 to 12.5 mg/kg

---

Ratio (P388/ADR to P388/S) values, listed per item
# Test system: Adriamycin-resistant P388 leukemia cells (P388/ADR)
# test-description: Growth inhibition of cultured Adriamycin-resistant (multi-drug resistant) P388 leukemia cells
# Assay type: cell-based
# condition-parameters: ratio of IC50 P388/ADR to IC50 P388/S

Worked set:
CC1OC(OC2CCC(OC3(C)CC(=O)C4(O)C5=C(C=CC4(O)C3)C(=O)c3c(ccc(C4CC(O)C(OC6CCC(=O)C(C)O6)C(C)O4)c3O)C5=O)OC2C)CCC1=O (stereo not shown) [MH190 Y3, Saquayamycin C]	0.83
CC1OC(OC2CCC(OC3(C)CC(=O)C4(O)C5=C(C=CC4(O)C3)C(=O)c3c(ccc(C4CC6OC7CC(=O)C(C)OC7OC6C(C)O4)c3O)C5=O)OC2C)CCC1=O (stereo not shown) [MH190 Y4, Saquayamycin D]	0.86
COc1cccc2c1C(=O)c1c(O)c3c(c(O)c1C2=O)C[C@@](O)(C(=O)CO)C[C@@H]3O[C@H]1C[C@H](N)[C@H](O)[C@H](C)O1 [Adriamycin, reference compound]	31.7
CC1OC(OC2CCC(OC3(C)CC(=O)C4(O)C5=C(C=CC4(O)C3)C(=O)c3c(ccc(C4CC6OC7CC(=O)C(C)OC7OC6C(C)O4)c3O)C5=O)OC2C)C=CC1=O (stereo not shown) [MH190 Y2, Saquayamycin B]	0.84
CC1OC2OC3C(C)OC(c4ccc5c(c4O)C(=O)C4=C(C5=O)C5(O)C(=O)CC(C)(O)CC5(O)C=C4)CC3OC2CC1=O (stereo not shown) [MH190 Y2-1, Saquayamycin B1]	0.57
CC1OC(OC2CCC(OC3(C)CC(=O)C4(O)C5=C(C=CC4(O)C3)C(=O)c3c(ccc(C4CC(O)C(OC6C=CC(=O)C(C)O6)C(C)O4)c3O)C5=O)OC2C)C=CC1=O (stereo not shown) [MH190 Y1, Saquayamycin A]	0.84

Now consider a different compound.
Lookup: I have this compound here, CC1OC(OC2C(O)CC(c3ccc4c(c3O)C(=O)C3=C(C4=O)C4(O)C(=O)CC(C)(O)CC4(O)C=C3)OC2C)C=CC1=O (stereo not shown) [MH190 Y1-1, Saquayamycin A1] , and I need its recorded Ratio (P388/ADR to P388/S).
Found: 0.51
